- System: AbrB from B. amyloliquefaciens FZB45, full-length, His6-tagged (B. amyloliquefaciens FZB45)
- Assay details: SPR
Attribute measured: Kd (nM)
Give bare numbers, in nM.

Enquiry: Quick one: Kd of AbbA from B. amyloliquefaciens FZB45 as run on analytical FPLC (natural protein, UniProt A0A9P1JGI2 1-63, looked up) MSLIGERFTEEEQKLLLNILINHEYAIELLTSEINDIEAGSKSVDGTTYKKLVTLYDRFRNEN ?
Return: 31.4
